Test system: MDA-MB-435
Assay: NCI tumour cell line growth inhibition, 48 h
Listed here: items and their measured TGI.
Response body: numeric value in µM, unit text excluded.

| compound | readingUnit | TGI |
| --- | --- | --- |
| CN(C)CCn1c(=O)nc2c3c(c([N+](=O)[O-])ccc31)Nc1ccc(O)cc1-2 | µM | 46.6 |

Record request: TGI value, item COC(=O)C(C)(C)NC(=O)C(Cc1ccccc1)Nc1ncnc2c1ncn2-c1ccc(OC)cc1 (configuration not stated)
32

Record request: TGI value, item NC(=O)c1ccc(NCC2=CC(=O)C=CC2=O)cc1
32.1

Record request: TGI value, item S=c1[nH]nc(C23CC4CC(CC(C4)C2)C3)n1-c1ccc(Cl)cc1
55.9

###

Test system: NCI-H23 lung
Experiment: NCI tumour cell line growth inhibition, 48 h
measurementName: TGI

| molecule | targetOrSystem | TGI |
| --- | --- | --- |
| COC(=O)C(C)(C)NC(=O)C(Cc1ccccc1)Nc1ncnc2c1ncn2-c1ccc(OC)cc1 (stereo not drawn) | NCI-H23 lung | > 100 µM |

Record request: TGI value, item CCCCNC(=O)NNC(=O)c1cc(/C=C/c2cccc([N+](=O)[O-])c2)ncn1
> 100 µM

Record request: TGI value, item O=C(Nc1ccc(Cl)cc1)/C(=C(/[O-])c1ccc(Br)cc1)[n+]1cccc(-c2ccc(Cl)cc2)n1
9.04 µM

Record request: TGI value, item C=C1C(=O)O[C@H]2[C@H]1CC/C(COC(=O)NCc1c[nH]c3ccc(Br)cc13)=C\CC[C@@]1(C)O[C@@H]21
3.35 µM

Record request: TGI value, item C=C(C)C12OC3(c4ccccc4)OC1C1C4OC4(CO)C(O)C4(O)C(=O)C(C)=CC4C1(O3)C(C)C2OC(=O)/C=C/C=C/c1ccccc1 (stereo not drawn)
1.4 µM

###

System: OVCAR-3 ovarian
Assay: NCI tumour cell line growth inhibition, 48 h
Where a SMILES comes first, the peptide text is derived from it. [ ]: non-standard residue; d: D form. The star is where a group is joined. ξ: configuration not given here. ξHyp = O=C(O)C1CC(O)CN1; Cbz = O=C(OCc1ccccc1)*
Values of TGI greater than or equal to 30 µM map to 1; values below map to 0.

Solved cases (2 shown):
| molecule | groupLabel |
| --- | --- |
| COc1cc(Nc2cnc3ccc(N)cc3n2)cc(OC)c1OC | 1 |
| CN(C)CCNC(=O)c1cccc(NC(=O)c2ccccc2)c1[N+](=O)[O-] | 1 |

State whether the measured TGI reaches 30 µM, counting equality as reaching it, for NC(=O)CNC(=O)C1CC(O)CN1C(=O)OCc1ccccc1 (stereo not given) (Cbz-[ξHyp]-Gly-NH2)
1

State whether the measured TGI reaches 30 µM, counting equality as reaching it, for NC(N)=NS(=O)(=O)c1ccc(NC(=O)c2cccc3cc4ccccc4nc23)cc1
1

State whether the measured TGI reaches 30 µM, counting equality as reaching it, for CC(=O)O[C@H]1[C@@H]2OC(=O)C3(CC3)C2C[C@H]2O[C@]2(C)CC/C=C(\C)CCC[C@@H]1C (stereo not given in full)
1

State whether the measured TGI reaches 30 µM, counting equality as reaching it, for S=C1Cc2cc3ccccc3nc2-c2ccccc2N1
0

State whether the measured TGI reaches 30 µM, counting equality as reaching it, for O=c1oc2ccccc2c(O)c1C(C/C(CCN1CCCC1)=N/O)c1ccccc1 (stereo not given)
1

State whether the measured TGI reaches 30 µM, counting equality as reaching it, for COC(=O)[C@]1(C)CCC[C@]2(C)[C@H]3CC[C@]4(C(C)C)OO[C@@H](O4)[C@]34O[C@@H]4C[C@H]21
0

State whether the measured TGI reaches 30 µM, counting equality as reaching it, for Cc1ccc(/C(=C/C=C(/C#N)C(N)=O)Sc2ncnn2C)cc1
0

State whether the measured TGI reaches 30 µM, counting equality as reaching it, for CNc1nc(N)cc(=O)[nH]1
1
